All figures here come from ChEMBL document CHEMBL1136028.

system_name: Nitric oxide synthase, inducible (Homo sapiens, UniProt P35228)
Sequence (P35228 whole entry): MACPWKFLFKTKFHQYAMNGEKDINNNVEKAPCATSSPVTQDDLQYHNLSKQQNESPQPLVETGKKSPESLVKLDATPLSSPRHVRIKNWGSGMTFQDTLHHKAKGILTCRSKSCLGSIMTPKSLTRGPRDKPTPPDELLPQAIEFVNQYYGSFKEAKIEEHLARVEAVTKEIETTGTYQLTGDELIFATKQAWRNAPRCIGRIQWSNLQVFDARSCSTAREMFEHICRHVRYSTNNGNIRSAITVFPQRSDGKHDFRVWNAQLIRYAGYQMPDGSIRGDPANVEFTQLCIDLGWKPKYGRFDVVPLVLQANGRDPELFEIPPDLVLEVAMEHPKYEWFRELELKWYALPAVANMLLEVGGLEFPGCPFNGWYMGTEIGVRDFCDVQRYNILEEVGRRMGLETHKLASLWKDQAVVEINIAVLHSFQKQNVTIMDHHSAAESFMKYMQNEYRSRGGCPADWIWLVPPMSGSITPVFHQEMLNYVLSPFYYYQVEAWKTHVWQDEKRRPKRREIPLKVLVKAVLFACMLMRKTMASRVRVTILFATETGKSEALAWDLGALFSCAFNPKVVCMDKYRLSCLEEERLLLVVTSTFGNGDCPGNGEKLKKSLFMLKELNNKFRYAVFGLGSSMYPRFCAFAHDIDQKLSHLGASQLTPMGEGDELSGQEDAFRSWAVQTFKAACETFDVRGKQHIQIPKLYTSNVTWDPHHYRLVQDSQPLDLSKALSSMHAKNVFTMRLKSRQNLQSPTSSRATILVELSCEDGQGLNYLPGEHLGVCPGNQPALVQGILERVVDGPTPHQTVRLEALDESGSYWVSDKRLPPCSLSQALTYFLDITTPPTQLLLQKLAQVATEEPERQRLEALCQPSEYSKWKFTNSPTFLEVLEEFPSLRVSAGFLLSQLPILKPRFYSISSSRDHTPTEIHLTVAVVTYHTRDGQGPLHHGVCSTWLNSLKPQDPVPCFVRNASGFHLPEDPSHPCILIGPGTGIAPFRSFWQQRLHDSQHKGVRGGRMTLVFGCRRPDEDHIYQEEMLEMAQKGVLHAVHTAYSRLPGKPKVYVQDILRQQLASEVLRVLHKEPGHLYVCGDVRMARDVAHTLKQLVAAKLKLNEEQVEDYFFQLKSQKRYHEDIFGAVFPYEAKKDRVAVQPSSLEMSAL
experiment_summary: Concentration required to inhibit Inducible nitric oxide synthase over expressed in A549 cells
Format: cell-based
observed_property: IC50 (nM)

1. CC1=CC(N)=NCC1C (configuration not stated)
2. CC1=CC(N)=NC(C)C1 (configuration not stated)
Task item: IC50 comparison. Which is larger, 1 or 2 ? Answer = label.
Reply: 1
(1: 510 nM, 2: 180 nM)

###

Here we list compounds with their recorded IC50 when tested on Nitric oxide synthase, inducible (Mus musculus, UniProt P29477).
Sequence (P29477 whole entry): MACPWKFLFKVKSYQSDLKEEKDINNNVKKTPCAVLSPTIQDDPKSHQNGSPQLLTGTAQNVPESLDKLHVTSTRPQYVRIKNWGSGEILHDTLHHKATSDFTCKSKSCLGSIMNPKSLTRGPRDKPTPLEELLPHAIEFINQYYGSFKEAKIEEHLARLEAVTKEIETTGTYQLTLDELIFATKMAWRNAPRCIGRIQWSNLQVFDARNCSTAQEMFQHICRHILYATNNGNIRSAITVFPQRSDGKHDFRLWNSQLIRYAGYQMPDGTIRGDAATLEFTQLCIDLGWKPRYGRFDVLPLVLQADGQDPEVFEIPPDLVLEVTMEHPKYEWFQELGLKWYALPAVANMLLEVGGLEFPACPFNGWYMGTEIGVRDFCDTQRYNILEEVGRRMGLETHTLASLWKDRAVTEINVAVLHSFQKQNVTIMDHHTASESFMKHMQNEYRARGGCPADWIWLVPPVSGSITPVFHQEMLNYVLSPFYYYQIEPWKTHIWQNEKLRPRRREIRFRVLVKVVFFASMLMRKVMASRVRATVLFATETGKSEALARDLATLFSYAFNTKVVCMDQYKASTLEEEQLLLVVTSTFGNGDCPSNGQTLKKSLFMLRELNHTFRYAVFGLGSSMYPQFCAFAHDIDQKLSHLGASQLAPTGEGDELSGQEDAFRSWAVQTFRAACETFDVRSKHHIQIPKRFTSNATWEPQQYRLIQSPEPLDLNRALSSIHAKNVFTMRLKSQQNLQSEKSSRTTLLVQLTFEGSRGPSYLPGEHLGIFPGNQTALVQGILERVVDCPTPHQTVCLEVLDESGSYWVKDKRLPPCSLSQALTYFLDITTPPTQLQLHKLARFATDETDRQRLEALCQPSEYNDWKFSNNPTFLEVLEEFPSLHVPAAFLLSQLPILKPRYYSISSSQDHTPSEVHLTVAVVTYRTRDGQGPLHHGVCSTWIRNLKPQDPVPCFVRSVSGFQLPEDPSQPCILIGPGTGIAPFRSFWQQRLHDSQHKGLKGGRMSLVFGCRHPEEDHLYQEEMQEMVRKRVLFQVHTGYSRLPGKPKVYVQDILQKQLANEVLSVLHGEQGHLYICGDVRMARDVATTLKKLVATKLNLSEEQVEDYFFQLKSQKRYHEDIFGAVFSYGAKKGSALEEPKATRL
Form entry: value (µM) — number only.

Below, each entry is followed by its recorded IC50 result.
compound	observed_property	reading_unit	readout_value
CC1=CC(N)=NCC1	IC50	µM	0.022
CCCC1CC(C)=CC(N)=N1 (centres undefined)	IC50	µM	0.1

Task item: For C=CCC1CC(C)=CC(N)=N1 (centres undefined) , what is its reported IC50?
Reply: 0.025

Task item: Then what about the compound CC1=CC(N)=NCC1(C)C ?
Reply: 0.1
